- Test system: MS2 coat protein
- Method description: apparent Kd, MS2 coat protein; higher = weaker binding; RNA-MaP array; theophylline 2 mM where present
- Condition notes: designed as: ON switch for theophylline; no ligand
The reader will find reported apparent Kd values listed item by item below.
Measured quantity: apparent Kd (nM)

[[record]]
sequence_chain = "GGGCCCGUAAGCAGGCCCACAGCGGGUGAUACCAGCAAUAAAACUUGCCCUUGGCAGCACACAGCUACAUGAGGAUCACCCAUGU"
measurement_target = "MS2 coat protein"
unit = "nM"
readout_number = 36.5

[[record]]
sequence_chain = "UGUAUGUGAUGUGAUACCAGUCCAAUACUGGUAACAUGAGGAUCACCCAUGUAAUGAUGGGACCCUUGGCAGCACAUCGCAUACU"
measurement_target = "MS2 coat protein"
unit = "nM"
readout_number = 212

[[record]]
sequence_chain = "UGAUCCUACAGAGAUACCAGUGCCACUGAGUGACCAGACACAUGAGGAUCACCCAUGUAACACCCUUGGCAGCUCAACUAAAGGG"
measurement_target = "MS2 coat protein"
unit = "nM"
readout_number = 22.2

[[record]]
sequence_chain = "AAUAUAAAAUAAAGAAAAUUUAUAUCUGAUACCAGACUCUCAUGGGUCCCUUGGCAGCAGUAACAUGAGGAUCACCCAUGUAUUA"
measurement_target = "MS2 coat protein"
unit = "nM"
readout_number = 114

[[record]]
sequence_chain = "GGCCGGUGCGCUUUGAAGCGACGGCGUGAUACCAGAUGUAAGAGCGUCCCUUGGCAGCACGUUUACAUGAGGAUCACCCAUGUCU"
measurement_target = "MS2 coat protein"
unit = "nM"
readout_number = 196

[[record]]
sequence_chain = "UCGUGUAUAUCGGAUACCAGUGAGAACGAUACAUGAGGAUCACCCAUGUGAGUUGAUGUACACCCUUGGCAGCUGUAUAUAUCUA"
measurement_target = "MS2 coat protein"
unit = "nM"
readout_number = 25


---

- Test system: MS2 coat protein
- Method description: apparent Kd, MS2 coat protein; higher = weaker binding; RNA-MaP array; FMN 200 µM where present
- Condition notes: designed as: OFF switch for flavin mononucleotide; no ligand
Measured quantity: apparent Kd

[[record]]
sequence_chain = "AAAAAGACAGGAUAUACAUGAGGAUCACCCAUGUGAAAAAAAAAAAAAAAAAAAAAGUGUAGAAGGGUCAAAAA"
measurement_target = "MS2 coat protein"
measured_quantity = "apparent Kd"
result = "48.9 nM"

[[record]]
sequence_chain = "GUGUCGUCAGGAUAUCCUACAUAACUAUCGUUGUUACCAUUGGAGAAGGGACAUGAGGAUCACCCAUGUUUUCC"
measurement_target = "MS2 coat protein"
measured_quantity = "apparent Kd"
result = "19.3 nM"

[[record]]
sequence_chain = "AAUAGGCGAGGAUAUACAUGAGGAUCACCCAUGUAAGUAAGCCUGGCUGAAACUGAAUGUAGAAGGCGCAAUAA"
measurement_target = "MS2 coat protein"
measured_quantity = "apparent Kd"
result = "17.6 nM"

[[record]]
sequence_chain = "GGAAAACAUGAGGAUCACCCAUGUAAGGAUAUGCAAAAGGAUAUAGAAGGAAAAAAAAGCAGAAGGUACAAAGG"
measurement_target = "MS2 coat protein"
measured_quantity = "apparent Kd"
result = "39.9 nM"

